- Test system: MOLT-4
- procedure.details: NCI tumour cell line growth inhibition, 48 h
Activity calls are given as the source filed them. Cut-off read from the data, not from the text of the source: active = GI50 up to about 1.1 µM and inactive = higher.
Labels: active, inactive

[
  {
    "compound": "O=C1CCCc2ccc([N+](=O)[O-])c(O)c21",
    "discrete.label": "inactive"
  },
  {
    "compound": "CCOC(=O)C1Oc2ccc([N+](=O)[O-])c3c2C1(O)CCC3 (configuration not stated)",
    "discrete.label": "inactive"
  },
  {
    "compound": "O=C(CN1CCOCC1)c1ccc2c(c1)oc(=O)n2CCN1CCCC1",
    "discrete.label": "inactive"
  },
  {
    "compound": "CC(C)NC1CCCCC2c3cc(F)ccc3[C@]12O (some centres not stated)",
    "discrete.label": "inactive"
  },
  {
    "compound": "Oc1ncnc2c1nnn2CCCCCCCCCCCCn1nnc2c(O)ncnc21",
    "discrete.label": "inactive"
  },
  {
    "compound": "N/C(=N\\N=C=C1C(=O)Nc2ccc(F)cc21)NO",
    "discrete.label": "inactive"
  },
  {
    "compound": "NC(=S)N/N=C1\\CCc2ccccc2C1",
    "discrete.label": "inactive"
  },
  {
    "compound": "COc1ccc(/C=C2\\CCCCCC2=O)cc1",
    "discrete.label": "inactive"
  },
  {
    "compound": "CN(C)c1n/c(=N/c2cccc(Cl)c2)ss1",
    "discrete.label": "inactive"
  },
  {
    "compound": "Nc1ncnc2c1nc(Cl)n2C1OC(CO)C(O)C1O (configuration not stated)",
    "discrete.label": "active"
  },
  {
    "compound": "Cc1cc(NS(=O)(=O)c2ccc(NC(=O)c3cccc4c(N)c5ccccc5nc34)cc2)no1",
    "discrete.label": "inactive"
  },
  {
    "compound": "O=C1Oc2ccc([N+](=O)[O-])cc2N/C1=C\\C(=O)c1ccccc1",
    "discrete.label": "inactive"
  }
]

###

- System: KM12
- procedure.details: NCI tumour cell line growth inhibition, 48 h
The source made the active and inactive calls. Cut-off read from the data, not from the text of the source: active = GI50 up to about 1.1 µM and inactive = higher.
quantity.name: GI50

[
  {
    "compound": "C=C[C@@]1(C)CC[C@@H]2[C@@]3(C1)O[C@H]3CC1[C@](C)(C(=O)OC)CCC[C@@]12C (stereo not given in full)",
    "measured.result": "35.6 µM (inactive)"
  },
  {
    "compound": "NC1=NN(c2ccccc2)C2(O)c3ccncc3C3=NN(c4ccccc4)C(=O)C132 (stereo not given)",
    "measured.result": "> 100 µM (inactive)"
  },
  {
    "compound": "COC(=O)c1cc(Br)c(Br)n1C",
    "measured.result": "> 100 µM (inactive)"
  },
  {
    "compound": "COC(=O)[C@@H]1[C@H]2CC[C@]3(C)[C@@H](OC(C)=O)CC[C@H]3[C@@H]2CC[C@H]1C1(C)SCCS1",
    "measured.result": "28.6 µM (inactive)"
  },
  {
    "compound": "CCCCCCCc1ccc(-c2nnc(/N=N/c3ccc(OCCCCC)cc3)s2)s1",
    "measured.result": "> 100 µM (inactive)"
  }
]

###

- Test system: A498
- procedure.details: NCI tumour cell line growth inhibition, 48 h
Activity calls are given as the source filed them. Rule as the data show it: active = GI50 up to about 1.1 µM and inactive = higher.
Labels: true (1) for active, false (0) for inactive

[
  {
    "molecule": "Clc1ccccc1-c1nnc2c(-c3ccccc3)nc3ccccc3n12",
    "discrete.label": "false (0)"
  },
  {
    "molecule": "O=C(c1ccccc1)C(c1ccccc1)C1(O)C(=O)Nc2c(Cl)ccc(Cl)c21 (configuration not stated)",
    "discrete.label": "false (0)"
  },
  {
    "molecule": "CC(C)=CC(=O)Oc1ccc([N+](=O)[O-])cc1",
    "discrete.label": "false (0)"
  },
  {
    "molecule": "Cc1c(-c2ccc(O)cc2)n(CCCCCCNCCOC(=O)NCCCc2ccc(N(CCCl)CCCl)cc2)c2ccc(O)cc12",
    "discrete.label": "false (0)"
  },
  {
    "molecule": "Nc1ncc(N)c(NCC2(CO)CC(CCc3ccccc3)C2)n1 (configuration not stated)",
    "discrete.label": "false (0)"
  },
  {
    "molecule": "O=c1[nH][nH]c(=O)n1Cc1ccccc1",
    "discrete.label": "false (0)"
  },
  {
    "molecule": "CC(=O)OC1CN2CCC1CC2 (configuration not stated) [ACECLIDINE]",
    "discrete.label": "false (0)"
  },
  {
    "molecule": "O=C(CN1CCOCC1)c1ccc2c(c1)oc(=O)n2CCN1CCCC1",
    "discrete.label": "false (0)"
  },
  {
    "molecule": "O=CC1C(Cl)=Nc2nc3ccccc3n2C1c1ccccc1 (configuration not stated)",
    "discrete.label": "false (0)"
  },
  {
    "molecule": "CN(C)CC1CN(C(=O)Nc2ccccc2)C(=N)O1 (configuration not stated)",
    "discrete.label": "false (0)"
  },
  {
    "molecule": "C(=N\\NC1=NCCCN1)/c1ccc(-c2cn3cc(/C=N/NC4=NCCCN4)ccc3n2)cc1",
    "discrete.label": "false (0)"
  },
  {
    "molecule": "Cc1nn(C(=O)Cc2ccccc2)c2c1C(c1ccc(/C=C/c3ccccc3)cc1)SC(=N)N2 (configuration not stated)",
    "discrete.label": "false (0)"
  },
  {
    "molecule": "Nc1nnc(N)n1NC(=O)C(=O)Nc1ccc([N+](=O)[O-])cc1",
    "discrete.label": "false (0)"
  },
  {
    "molecule": "CC(C)Cn1cnc2c(NCC(C)O)nc3ccccc3c21 (configuration not stated)",
    "discrete.label": "false (0)"
  },
  {
    "molecule": "Oc1nnc(-c2ccc(F)cc2)cc1-c1ccccc1",
    "discrete.label": "false (0)"
  },
  {
    "molecule": "Oc1ncnc2c1nnn2CCCCCCCCCCCCn1nnc2c(O)ncnc21",
    "discrete.label": "false (0)"
  },
  {
    "molecule": "COC(=O)C1(c2ccc(N(C)C)cc2OC)CCCN(C(=O)Oc2ccccc2[N+](=O)[O-])CCc2c1[nH]c1ccccc21 (configuration not stated)",
    "discrete.label": "false (0)"
  },
  {
    "molecule": "[N-]=[N+]=NC1=C(N=[N+]=[N-])c2cccc3cccc(c23)C1=O",
    "discrete.label": "false (0)"
  },
  {
    "molecule": "C=C(C(=O)OC)c1cc2ccccc2n1S(=O)(=O)c1ccccc1",
    "discrete.label": "false (0)"
  },
  {
    "molecule": "CNc1c2cccc(C)c2nc2c(C(=O)NCCN(C)C)cccc12",
    "discrete.label": "true (1)"
  },
  {
    "molecule": "COC1(OC)C2(Cl)C(Cl)=C(Cl)C1(Cl)C1C2C2CC1(C(=O)O)c1ccccc12 (configuration not stated)",
    "discrete.label": "false (0)"
  },
  {
    "molecule": "COc1ccc2c(=O)c3ccoc3n(CC=C(C)C)c2c1 [ACROPHYLLINE]",
    "discrete.label": "false (0)"
  }
]

###

- System: KM12
- procedure.details: NCI tumour cell line growth inhibition, 48 h
Active and inactive are the calls of the source. Cut-off read from the data, not from the text of the source: active = GI50 up to about 1.1 µM and inactive = higher.

[
  {
    "compound": "COc1ccc(C(c2ccc3c(c2)OCO3)N2C(=O)CCC2C(=O)O)cc1 (stereo not given)",
    "GI50": "> 100 µM (inactive)"
  },
  {
    "compound": "O=C(c1ccccc1)C1C(C(=O)c2ccccc2)N1Cc1ccccc1 (stereo not given)",
    "GI50": "27.8 µM (inactive)"
  },
  {
    "compound": "CNC(=O)OCC1=C(COC(=O)NC)C(C)N(c2ccccc2)C1 (stereo not given)",
    "GI50": "30.5 µM (inactive)"
  },
  {
    "compound": "O=C1N[C@H]2C(=O)c3c(Cl)sc(Cl)c3[C@H]2O1",
    "GI50": "17.3 µM (inactive)"
  },
  {
    "compound": "COc1ccc(/C=C(\\NC(=O)c2ccccc2)c2nc3ccccc3[nH]2)cc1",
    "GI50": "39.6 µM (inactive)"
  }
]

###

- Test system: HL-60
- procedure.details: NCI tumour cell line growth inhibition, 48 h
Active and inactive are the calls of the source. Rule as the data show it: active = GI50 up to about 1.1 µM and inactive = higher.
Classes used: YES = active, NO = inactive

[
  {
    "molecule": "COc1ccc(CNC(=O)[C@H](Cc2ccc(O)cn2)NC(C)=O)cc1OC",
    "target.under.test": "HL-60",
    "discrete.label": "NO"
  },
  {
    "molecule": "C#CCOCn1ccc(=O)[nH]c1=O",
    "target.under.test": "HL-60",
    "discrete.label": "NO"
  },
  {
    "molecule": "Oc1ncnc2c1nnn2CCCCCCCCCCCCn1nnc2c(O)ncnc21",
    "target.under.test": "HL-60",
    "discrete.label": "NO"
  },
  {
    "molecule": "C(/Cc1ccc2c(c1)OCO2)=N\\N=C1NCCCCN1",
    "target.under.test": "HL-60",
    "discrete.label": "NO"
  },
  {
    "molecule": "CC(C)c1ccc(C2C3=C(N=C4SCC(=O)N42)C(=O)c2ccccc23)cc1 (stereo not drawn)",
    "target.under.test": "HL-60",
    "discrete.label": "NO"
  },
  {
    "molecule": "CC(=O)N1C(Nc2cnc3ccccc3c2)CCN1c1ccccc1 (stereo not drawn)",
    "target.under.test": "HL-60",
    "discrete.label": "NO"
  },
  {
    "molecule": "Nc1ncnc2c1nc(Cl)n2C1OC(CO)C(O)C1O (stereo not drawn)",
    "target.under.test": "HL-60",
    "discrete.label": "YES"
  },
  {
    "molecule": "NC(=S)N/N=C1\\CCc2ccccc2C1",
    "target.under.test": "HL-60",
    "discrete.label": "NO"
  },
  {
    "molecule": "CC(CCCCNC(=O)OC(C)(C)C)NC(=O)NC(C)CCCCNC(=O)OC(C)(C)C (stereo not drawn)",
    "target.under.test": "HL-60",
    "discrete.label": "NO"
  },
  {
    "molecule": "CN(CCCCCl)P(=O)(OCC1=CC(=O)c2ccccc2C1=O)OC[C@H]1O[C@@H](n2cc(F)c(=O)[nH]c2=O)C[C@@H]1O (stereo partly drawn)",
    "target.under.test": "HL-60",
    "discrete.label": "YES"
  },
  {
    "molecule": "CC(=O)/C(=C\\I)c1ccccc1",
    "target.under.test": "HL-60",
    "discrete.label": "YES"
  },
  {
    "molecule": "COC1=CC(=O)C2C(C1=O)C(c1ccc(Cl)cc1)[C@@H]2C (stereo partly drawn)",
    "target.under.test": "HL-60",
    "discrete.label": "NO"
  },
  {
    "molecule": "Cc1cc(S(=O)(=O)Nc2nnc3c4ccccc4cnn23)c(S)cc1Cl",
    "target.under.test": "HL-60",
    "discrete.label": "NO"
  },
  {
    "molecule": "Cc1[nH]c2ccccc2c1/C=N/c1ccc(Oc2ccccc2)cc1",
    "target.under.test": "HL-60",
    "discrete.label": "NO"
  },
  {
    "molecule": "CC(=O)[C@H]1[C@H](O)C[C@@]2(C)[C@@H]3CCc4cc(O)c(OC5OC(CO)C(O)C(O)C5O)cc4C3(C)C(=O)C[C@]12C (stereo partly drawn)",
    "target.under.test": "HL-60",
    "discrete.label": "NO"
  },
  {
    "molecule": "CC#C[I+]c1ccccc1",
    "target.under.test": "HL-60",
    "discrete.label": "NO"
  },
  {
    "molecule": "C/C(=N/NC(N)=S)c1ccc[nH]1",
    "target.under.test": "HL-60",
    "discrete.label": "NO"
  },
  {
    "molecule": "O=C(O)CSc1nnc(Cc2ccccc2)[nH]1",
    "target.under.test": "HL-60",
    "discrete.label": "NO"
  },
  {
    "molecule": "CCCCOC(=O)NC(=O)c1cn(CCCOC(=O)CCCCCCCCC(=O)OCCCn2cc(C(=O)NC(=O)OCCCC)c(=O)[nH]c2=O)c(=O)[nH]c1=O",
    "target.under.test": "HL-60",
    "discrete.label": "NO"
  },
  {
    "molecule": "NN/C(=N\\S(=O)(=O)c1cc2ccccc2s1)Nc1ccc(Cl)cc1",
    "target.under.test": "HL-60",
    "discrete.label": "NO"
  },
  {
    "molecule": "O=C(N/N=C/C=C/c1ccc([N+](=O)[O-])o1)c1ccc(Br)s1",
    "target.under.test": "HL-60",
    "discrete.label": "NO"
  },
  {
    "molecule": "N#CC(=N)c1ncn(CCO)c1NC(=O)C(F)(F)F",
    "target.under.test": "HL-60",
    "discrete.label": "NO"
  },
  {
    "molecule": "COC(=O)C1=C(O)c2cc(OC)c(OC)cc2C(c2ccc(OC)c(OC)c2)C1 (stereo not drawn)",
    "target.under.test": "HL-60",
    "discrete.label": "NO"
  }
]
